# Measurement Target: H1047R PIK3CA enzyme (Homo sapiens, UniProt P42336, H1047R)
# Sequence (P42336 whole entry H1047R): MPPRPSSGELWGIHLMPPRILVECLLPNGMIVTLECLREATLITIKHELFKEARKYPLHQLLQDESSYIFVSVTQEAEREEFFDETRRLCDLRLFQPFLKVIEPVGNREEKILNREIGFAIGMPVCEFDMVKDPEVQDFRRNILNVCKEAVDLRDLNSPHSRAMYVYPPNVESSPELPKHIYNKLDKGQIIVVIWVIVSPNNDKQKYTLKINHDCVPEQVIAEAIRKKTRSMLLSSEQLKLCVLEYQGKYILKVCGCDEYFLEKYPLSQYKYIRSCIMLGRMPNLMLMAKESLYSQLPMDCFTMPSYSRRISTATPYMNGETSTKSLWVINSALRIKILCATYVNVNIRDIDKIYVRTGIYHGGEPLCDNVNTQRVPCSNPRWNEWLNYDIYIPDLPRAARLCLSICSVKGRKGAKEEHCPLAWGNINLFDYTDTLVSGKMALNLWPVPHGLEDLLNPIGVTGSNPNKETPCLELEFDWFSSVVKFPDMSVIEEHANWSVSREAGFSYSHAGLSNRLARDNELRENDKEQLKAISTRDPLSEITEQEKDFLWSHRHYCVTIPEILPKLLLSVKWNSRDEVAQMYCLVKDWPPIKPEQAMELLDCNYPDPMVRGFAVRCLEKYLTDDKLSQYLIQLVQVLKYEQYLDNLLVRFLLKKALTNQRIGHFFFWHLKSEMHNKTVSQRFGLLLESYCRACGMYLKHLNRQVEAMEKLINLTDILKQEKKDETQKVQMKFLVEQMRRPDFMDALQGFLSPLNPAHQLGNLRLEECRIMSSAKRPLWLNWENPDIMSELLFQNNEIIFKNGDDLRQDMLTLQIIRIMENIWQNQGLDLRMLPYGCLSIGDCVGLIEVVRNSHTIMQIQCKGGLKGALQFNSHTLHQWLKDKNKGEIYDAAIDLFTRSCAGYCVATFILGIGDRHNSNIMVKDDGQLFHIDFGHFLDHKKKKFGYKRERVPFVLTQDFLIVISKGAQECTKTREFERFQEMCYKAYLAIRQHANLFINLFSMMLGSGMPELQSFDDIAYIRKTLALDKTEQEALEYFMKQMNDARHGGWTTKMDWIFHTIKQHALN
# Sequence (P27986 whole entry partner): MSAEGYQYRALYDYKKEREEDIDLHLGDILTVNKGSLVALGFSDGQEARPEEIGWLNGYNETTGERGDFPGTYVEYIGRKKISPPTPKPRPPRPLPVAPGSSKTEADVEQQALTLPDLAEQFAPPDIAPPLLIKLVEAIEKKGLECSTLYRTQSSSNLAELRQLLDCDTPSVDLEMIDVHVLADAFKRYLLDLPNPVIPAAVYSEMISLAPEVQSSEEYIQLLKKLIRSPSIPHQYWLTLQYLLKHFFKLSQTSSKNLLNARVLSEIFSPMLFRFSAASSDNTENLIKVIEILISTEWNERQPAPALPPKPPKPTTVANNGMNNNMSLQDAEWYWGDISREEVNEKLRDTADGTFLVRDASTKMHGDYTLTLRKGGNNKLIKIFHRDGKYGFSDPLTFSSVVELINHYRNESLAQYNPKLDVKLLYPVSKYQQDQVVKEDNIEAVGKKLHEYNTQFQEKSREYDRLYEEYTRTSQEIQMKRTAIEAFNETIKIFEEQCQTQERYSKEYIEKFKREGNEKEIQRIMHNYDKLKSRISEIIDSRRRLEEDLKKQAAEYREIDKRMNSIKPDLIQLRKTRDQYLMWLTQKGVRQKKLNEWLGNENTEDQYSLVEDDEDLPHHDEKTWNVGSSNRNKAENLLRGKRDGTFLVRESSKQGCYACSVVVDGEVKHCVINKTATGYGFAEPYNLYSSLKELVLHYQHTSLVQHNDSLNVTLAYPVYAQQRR
# Test Name: ADP-Glo Biochemical PIK3CA Kinase Assay
# Protocol: Compounds to be assayed were plated in 16 doses of 1:2 serial dilutions (20 nL volume each well) on a 1536-well plate, and the plate warmed to room temperature. […] To the well was added 1 μL of 200 μM ATP and 20 μM of diC8-PIP2 in Substrate Assay Buffer (50 mM HEPES pH7.4, 50 mM NaCl, 5 mM DTT and 0.03% CHAPS) to start the reaction, and the plate was shaken for 10 seconds, then spun briefly at 1500 rpm, and then incubated for 60 minutes at room temperature. […]
pIC50: −log10 of the molar value.
Property: pIC50

The following molecules have reported results that may help.
[
  {
    "Molecule": "O=C(Nc1cc(-c2ccc3ncnn3n2)cc2c1[C@@H](c1cc(F)ccc1Cl)NC2=O)c1cc(F)cc(C(F)(F)F)c1",
    "Experimental Value": "5.00 to 6.00"
  },
  {
    "Molecule": "O=C1N[C@H](c2cc(F)ccc2Cl)c2c(NC(=O)N3CC4(CC4)c4cc(F)ccc43)cc(Br)cc21 (stereo in doubt)",
    "Experimental Value": "5.00 to 6.00"
  },
  {
    "Molecule": "O=C(Nc1cc(-c2cc(F)c3ncnn3c2)cc2c1[C@@H](c1cc(F)ccc1Cl)NC2=O)c1cc(F)cc(C(F)(F)F)c1",
    "Experimental Value": "4.00 to 5.00"
  },
  {
    "Molecule": "O=C1N[C@@H](c2cc(F)ccc2Cl)c2c(NC(=O)N3C[C@@H](O)c4ccccc43)cc(-c3ccc4ncnn4c3)cc21 (single isomer, unassigned)",
    "Experimental Value": "≥ 7.00"
  },
  {
    "Molecule": "O=C(Nc1cc(CS(=O)(=O)c2ccccc2)cc2c1[C@@H](c1cc(F)ccc1Cl)NC2=O)c1cc(F)cc(C(F)(F)F)c1",
    "Experimental Value": "5.00 to 6.00"
  }
]

Query: I'd like to know its pIC50. The molecule in question is Cc1ccccc1C1NC(=O)c2c(CNC(=O)C(F)(F)F)ccc(NC(=O)c3csc4ccccc34)c21 (stereo not shown)
Response: 6.30 to 7.00

Query: I have this molecule here, CN1CCN(C(=O)Nc2cc(Br)cc3c2[C@H](c2cc(F)ccc2Cl)NC3=O)CC1(C)C (single isomer, unassigned) , and I need its recorded pIC50.
Response: 4.00 to 5.00

Query: Which pIC50 is reported for this molecule? O=C(Nc1cc(Br)cc2c1[C@@H](c1cc(Cl)cc(F)c1F)NC2=O)c1cc(F)cc(C(F)(F)F)c1
Response: 5.00 to 6.00

Query: Look up pIC50 for this molecule: O=C(Nc1cccc2c1[C@@H](c1cc(F)ccc1Cl)NC2=O)c1cc(F)cc(C(F)(F)F)c1
Response: 5.00 to 6.00

Query: Requested read-out: pIC50. Entry: O=C(Nc1cc(-c2cn[nH]c2)nc2c1[C@H](c1cc(F)ccc1Cl)NC2=O)c1cc(F)cc(C(F)(F)F)c1
Response: ≥ 7.00

Query: Quick check: pIC50 of O=C(Nc1cc(Br)cc2c1C(c1cc(F)ccc1Cl)NC2=O)NC12CC3CC(CC(C3)C1)C2 (stereo not shown) ?
Response: 6.30 to 7.00

Query: Which pIC50 is listed for O=C1NC(c2cc(F)ccc2Cl)c2c(NS(=O)(=O)c3cc(F)cc(C(F)(F)F)c3)cc(Br)cc21 (stereo not shown) ?
Response: 4.00 to 5.00

Query: Which value of pIC50 has been reported for O=C1NC(c2cc(F)ccc2Cl)c2c1cc(-c1ccc3ncnn3c1)cc2N1C(=O)CCC1=O (stereo not shown) in the records?
Response: 4.00 to 5.00

Cited source for all entries: patent US12581252B2
